Reported Endpoint: pKd
Scale: negative log10 of molar concentration, which is what pKd denotes.

Report value only: pKd, ROCK2, c1ccc(-c2ccnc3[nH]ccc23)cc1 [SB-693578]
6.28

###

Consider the following molecules; for each one, report its %Inh.
- Test system: FLT4
- Cond: concentration: 1 μM, replicates: in singlicate; n = 1
Only the number, expressed in %, is required.

Give recorded %Inh. O=C1NC(=O)C(c2ccc(Cl)cc2)=C1Nc1ccc(O)cc1 [SB-340867]
0

Give recorded %Inh. Cc1nccc(-c2c(-c3ccc(F)cc3)ncn2CCCN2CCOCC2)n1.Cl [SB-282975]
23

Give recorded %Inh. CNc1nc(-c2ccc3c(N)n[nH]c3c2)cc(N2C[C@@H](C(=O)Nc3ccccc3)CC[C@H]2C)n1 [GSK2298859]
12

Give recorded %Inh. CCn1c(-c2ccccc2)nc2cnccc21 [SB-733416]
27

Give recorded %Inh. COc1ccc(Nc2nccc(N3CCC(NC(=O)c4cc5ccccc5s4)C3)n2)cc1 (stereo not shown) [GSK1379738]
3

Give recorded %Inh. CCCCc1nn2ncccc2c1-c1ccnc(NC2CC2)n1 [GW684374]
0

Give recorded %Inh. FC(F)(F)c1ccccc1-c1cc(-c2c[nH]nc2-c2ccccn2)ccn1 [GW679396]
0

###

Consider the following compounds; for each one, report its %Inh.
- System: CAMK2D
- Cond: concentration: 1 μM, replicates: in singlicate; n = 1
Only the number, expressed in %, is required.

Give recorded %Inh. COc1ccc(CSc2nnc(-c3ccc4ncsc4c3)o2)cc1C(F)(F)F
0

Give recorded %Inh. O=C1NC(=O)C(c2ccc(Cl)cc2)=C1Nc1cccc(Cl)c1
0

Give recorded %Inh. CC(=O)c1c(C)c2cnc(Nc3ccc(N4CCNCC4)cn3)nc2n(C2CCCC2)c1=O
0

Give recorded %Inh. Cc1ccc(NC(=O)Nc2ccc(Cl)cc2)cc1-c1ccc(C(=O)Nc2ccncc2)cc1
0

Give recorded %Inh. CC(C)c1ccc(O)cc1Nc1ccnc2ccc(C(F)(F)F)cc12
0

Give recorded %Inh. CNc1cc(-c2ccc3c(N)n[nH]c3c2)nc(N)n1
7

Give recorded %Inh. O=C(Nc1n[nH]c2nc(-c3cccs3)c(Br)cc12)C1CC1
10

Give recorded %Inh. CCCCc1nn2ncccc2c1-c1ccnc(NC2CC2)n1
12

###

- Tested on: PAK4
- Cond: concentration: 1 μM, replicates: in singlicate; n = 1
Consider the following compounds; for each one, report its %Inh.
Only the number, expressed in %, is required.

Give recorded %Inh. COc1cccc(NC(=O)Nc2ccc(C)c(-c3ccc(C(=O)Nc4ccncc4)cc3)c2)c1
0

Give recorded %Inh. Fc1ccc(-c2nc[nH]c2-c2ccncc2)cc1
13

Give recorded %Inh. Cc1c(Cn2c(C)c(C)n3c(=O)cc(N4CCOCC4)nc23)cccc1C(F)(F)F
19

Give recorded %Inh. COC(=O)c1cccc(NC(=O)NC2CCN(c3ccnc(Nc4ccc(OC)cc4)n3)C2)c1 (centres unmarked)
0

Give recorded %Inh. FC(F)(F)c1ccccc1-c1cc(-c2c[nH]nc2-c2ccccn2)ccn1
0

###

- System: MAP3K2
- Cond: concentration: 1 μM, replicates: in singlicate; n = 1
Reported Endpoint: %Inh
Could you give the number and then its unit, please?

Report value only: %Inh, MAP3K2, CNc1nc(-c2ccc3c(N)n[nH]c3c2)cc(N2C[C@@H](C(=O)Nc3ccccc3)CC[C@H]2C)n1
0%

Report value only: %Inh, MAP3K2, COc1ccc(Nc2nccc(N3CCC(NC(=O)C(C)c4ccc(Cl)cc4)CC3)n2)cc1 (stereo not drawn)
0%

Report value only: %Inh, MAP3K2, COc1ccc(Nc2nccc(-c3ccc(NC(=O)c4cc5cc(F)ccc5[nH]4)cc3)n2)cc1
5%

Report value only: %Inh, MAP3K2, Cc1cnc(N)c(/C=C/c2cncc(C(=O)NCCc3ccc(Cl)cc3Cl)c2)c1.Cl
0%

Report value only: %Inh, MAP3K2, COc1ccc(Nc2nccc(NCCNC(=O)Nc3cc(C)ccc3C)n2)cc1
0%

Report value only: %Inh, MAP3K2, Cn1cnc2c(N)ncnc21
0%

###

- System: MAP3K2
- Cond: concentration: 1 μM, replicates: in singlicate; n = 1
Reported Endpoint: %Inh (%)
Only the number, expressed in %, is required.

Give recorded %Inh. CS(=O)(=O)CCNCc1nc(-c2ccc3ncnc(Nc4ccc5c(cnn5Cc5ccccc5)c4)c3c2)cs1.Cl.Cl [GW569716]
1

Give recorded %Inh. COc1nccc(-c2c(-c3ccc(F)cc3)ncn2CCCN2CCOCC2)n1 [SB-282852]
0

Give recorded %Inh. Cc1c(Cn2c3ccccc3n3c(=O)cc(N4CCOCC4)nc23)cccc1C(F)(F)F [GSK2306394]
2

Give recorded %Inh. O=C(Nc1n[nH]c2nc(-c3ccco3)c(Br)cc12)C1CCN(Cc2ccccc2)C1.O=C(O)[C@H](O)[C@@H](O)C(=O)O (centres unmarked) [SB-742034]
21

Give recorded %Inh. CC(C)c1cc(-c2ccc3c(N)n[nH]c3c2)nc(N)n1 [GSK2250882]
2

Give recorded %Inh. FC(F)(F)c1ccccc1-c1cc(-c2c[nH]nc2-c2ccccn2)ccn1 [GW679396]
0

Give recorded %Inh. CS(=O)(=O)Cc1ccc(Nc2nccc(-c3c(-c4cccc(NC(=O)C5CCCCC5)c4)nn4ncccc34)n2)cc1 [GSK350559]
15

Give recorded %Inh. O=C1NC(=O)C(c2ccc(Cl)cc2)=C1Nc1cccc(Cl)c1 [SB-317651]
0

Give recorded %Inh. COC(=O)C(Cc1ccccc1)NC(=O)NC1CCN(c2ccnc(Nc3ccc(F)cc3)n2)C1 (centres unmarked) [GSK1379714]
0

Give recorded %Inh. COc1ccc(-c2coc3ccc(-c4nnc(C)o4)cc23)cc1
0

Give recorded %Inh. CS(=O)(=O)CCNCc1nc(-c2ccc3ncnc(Nc4ccc(OCc5ccccc5)c(Cl)c4)c3c2)cs1.Cl [GW582764]
3

Give recorded %Inh. CSc1ccc(-c2nc3n(c2-c2ccncc2)CCC3)cc1 [SKF-105561]
3

Give recorded %Inh. COc1ccc(Nc2nccc(N3CCC(NC(=O)C(C)c4ccc(Cl)cc4)C3)n2)cc1 (centres unmarked) [GSK1379735]
0

Give recorded %Inh. COC(=O)c1cccc(NC(=O)NC2CCN(c3ccnc(Nc4ccc(F)cc4)n3)C2)c1 (centres unmarked) [GSK1379725]
11

Give recorded %Inh. CNCc1ccc2nc(NC(=O)c3ccc(C(C)(C)C)cc3)cn2c1
21

Give recorded %Inh. O=C(Nc1n[nH]c2nc(-c3cccs3)c(Br)cc12)C1CC1 [SB-735297]
7

Give recorded %Inh. Cc1ccc(NC(=O)Nc2ccccc2)cc1-c1ccc(C(=O)Nc2ccncc2)cc1 [GSK1398471]
0

Give recorded %Inh. CCc1ccc(-c2ccc3c(c2)-c2n[nH]cc2S(=O)(=O)N3C)cc1
0

Give recorded %Inh. CC(=O)c1c(C)c2cnc(Nc3ccn(C)n3)nc2n(C2CCCC2)c1=O
0

Give recorded %Inh. O=c1cc(N2CCOCC2)nc2n(Cc3cccc(Cl)c3Cl)c3ccccc3n12 [GSK2299009]
21

Give recorded %Inh. COC(=O)C(NC(=O)NC1CCN(c2ccnc(Nc3ccc(F)cc3)n2)C1)c1ccccc1 (centres unmarked) [GSK1379712]
0

Give recorded %Inh. c1ccc(-c2ccnc3[nH]ccc23)cc1 [SB-693578]
50

Give recorded %Inh. Cc1nccc(-c2c(-c3ccc(F)cc3)ncn2CCCN2CCOCC2)n1.Cl [SB-282975]
17

Give recorded %Inh. O=c1cc(N2CCOCC2)nc2n(Cc3ccccc3F)ccn12 [GSK2297428]
0

Give recorded %Inh. Cc1ccccc1-c1cc(-c2c[nH]nc2-c2ccccn2)ccn1 [GW680061]
1

Give recorded %Inh. COc1ccc2cc(-c3nc(-c4ccccc4C(C)C)[nH]c3-c3ccncc3)ccc2c1 [SB-660566]
28

Give recorded %Inh. Fc1ccc(-c2nc3n(c2-c2ccncc2)CCS3)cc1 [GI98581]
6

Give recorded %Inh. Cc1c(Cn2c(C)c(C)n3c(=O)cc(N4CCOCC4)nc23)cccc1C(F)(F)F [GSK2328680]
0

Give recorded %Inh. CC(=O)c1c(C)c2cnc(Nc3ccc(N4CCNCC4)cn3)nc2n(C2CCCC2)c1=O
0

Give recorded %Inh. CN1c2ccc(-c3ccc(C(N)=O)cc3)cc2-c2[nH]ncc2S1(=O)=O
21

Give recorded %Inh. Cc1ccc(NC(=O)Nc2ccc(Cl)c(C(F)(F)F)c2)cc1-c1ccc(C(=O)Nc2ccncc2)cc1 [GSK1398470]
0

Give recorded %Inh. CNc1nc(-c2ccc3c(N)n[nH]c3c2)cc(N2C[C@@H](C(=O)NC3CCCCC3)OC[C@H]2C)n1 [GSK2375584]
0

Give recorded %Inh. NS(=O)(=O)c1cccc(N/C=C2\C(=O)Nc3ccc(S(=O)(=O)Cc4c(Cl)cccc4Cl)cc32)c1 [GSK398099]
0

Give recorded %Inh. Fc1ccc(-c2nn3cccc(F)c3c2-c2ccncc2)cc1 [GW475620]
8

Give recorded %Inh. COc1cccc(NC(=O)Nc2ccc(C)c(-c3ccc(C(=O)Nc4ccncc4)cc3)c2)c1 [GSK1398474]
0
